test: Fraction unbound in Wistar Han rat blood measured after 4 hrs by LC-MS/MS analysis; format: ADME, tissue-based
Outcome measure: fraction unbound at 4 h
Output: the number by itself.

# input Entry CC(=O)Nc1c(F)cc(C(=O)N[C@H]2CC[C@H](O)CC2)cc1O[C@@H](C)c1ccccc1 needs its fraction unbound at 4 h filled in; supply it.
# output 0.44

---

target: UniProt P08684
Sequence (P08684 whole entry): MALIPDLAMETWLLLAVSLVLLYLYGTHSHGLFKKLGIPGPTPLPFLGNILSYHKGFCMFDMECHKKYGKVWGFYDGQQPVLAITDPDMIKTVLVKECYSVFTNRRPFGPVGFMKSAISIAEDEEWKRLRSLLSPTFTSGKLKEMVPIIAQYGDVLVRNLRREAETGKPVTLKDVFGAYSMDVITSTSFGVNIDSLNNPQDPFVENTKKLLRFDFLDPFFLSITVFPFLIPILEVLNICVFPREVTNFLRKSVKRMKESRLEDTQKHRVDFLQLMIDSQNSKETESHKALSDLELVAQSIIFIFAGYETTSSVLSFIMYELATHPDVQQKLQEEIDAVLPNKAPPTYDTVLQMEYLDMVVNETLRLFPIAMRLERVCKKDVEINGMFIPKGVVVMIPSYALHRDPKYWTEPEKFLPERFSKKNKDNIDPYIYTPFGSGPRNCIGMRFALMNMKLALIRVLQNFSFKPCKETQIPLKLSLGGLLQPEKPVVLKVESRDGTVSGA
Outcome measure: IC50

# input Please respond with reported IC50 (system UniProt P08684) for CC(=O)Nc1c(F)cc(C(=O)N[C@H]2CC[C@H](O)CC2)cc1O[C@@H](C)c1ccccc1 [GSK046] .
# output > 39.8 µM

---

molecular target: Bromodomain-containing protein 2 (Homo sapiens, UniProt P25440, Y386A)
Sequence (P25440 whole entry Y386A): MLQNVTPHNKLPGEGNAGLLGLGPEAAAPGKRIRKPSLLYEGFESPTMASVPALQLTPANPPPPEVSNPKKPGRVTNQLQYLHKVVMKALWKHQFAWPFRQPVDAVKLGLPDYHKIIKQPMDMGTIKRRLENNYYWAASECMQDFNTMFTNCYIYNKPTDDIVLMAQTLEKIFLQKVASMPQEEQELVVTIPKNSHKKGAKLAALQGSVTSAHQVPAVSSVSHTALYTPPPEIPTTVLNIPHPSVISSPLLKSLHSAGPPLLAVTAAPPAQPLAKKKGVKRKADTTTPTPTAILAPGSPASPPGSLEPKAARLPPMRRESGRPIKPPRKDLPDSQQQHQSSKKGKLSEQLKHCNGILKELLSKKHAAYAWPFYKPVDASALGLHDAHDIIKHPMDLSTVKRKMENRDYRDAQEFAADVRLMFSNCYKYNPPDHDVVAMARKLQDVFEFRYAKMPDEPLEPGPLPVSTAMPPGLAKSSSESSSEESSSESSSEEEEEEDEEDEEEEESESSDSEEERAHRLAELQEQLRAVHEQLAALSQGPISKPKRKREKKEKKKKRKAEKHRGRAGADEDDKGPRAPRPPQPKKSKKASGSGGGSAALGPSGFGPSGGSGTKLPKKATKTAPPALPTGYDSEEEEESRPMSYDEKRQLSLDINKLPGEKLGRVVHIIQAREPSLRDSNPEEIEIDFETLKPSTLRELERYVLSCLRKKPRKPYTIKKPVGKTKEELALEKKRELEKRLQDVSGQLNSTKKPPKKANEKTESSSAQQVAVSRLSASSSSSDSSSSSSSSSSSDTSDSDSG
Outcome measure: IC50

# input Entry CC(=O)Nc1c(F)cc(C(=O)N[C@H]2CC[C@H](O)CC2)cc1O[C@@H](C)c1ccccc1 [GSK046] needs its IC50 filled in; supply it.
# output 10 µM

---

Consider compounds characterized by their IC50 with Bromodomain-containing protein 4 (Homo sapiens, UniProt O60885, Y97A).

Guide cases for IC50, answers given:
Structure as smiles: CC(=O)Nc1ccc(C(=O)N[C@H]2CC[C@H](O)CC2)cc1OCc1ccccc1
Experimental value: 1.26 µM
//
Structure as smiles: CC(=O)Nc1ccc(C(=O)NCCO)cc1OCc1ccccc1
Experimental value: 5.01 µM
//
Structure as smiles: CC(=O)Nc1ccc(C(=O)NC2CCOCC2)cc1O[C@H](C)c1ccccc1
Experimental value: 12.6 µM
//
Structure as smiles: CC(=O)Nc1ccc(C(=O)NCCCN)cc1OCc1ccc(C)cc1
Experimental value: 2 µM
//
Structure as smiles: CC(=O)Nc1ccc(C(=O)NCCCN)cc1OCc1ccccn1
Experimental value: 10 µM
//
Structure as smiles: CC(=O)Nc1ccc(C(=O)NCC2CCOCC2)cc1OCc1ccccc1
Experimental value: 2.51 µM

Let's switch to this compound now.
# input Please respond with reported IC50 (system Bromodomain-containing protein 4 (Homo sapiens, UniProt O60885, Y97A)) for CC(=O)Nc1ccc(C(=O)NCCCN)cc1OCC1CCOCC1 .
# output > 50.1 µM

---

test: Fraction unbound in human blood measured after 4 hrs by LC-MS/MS analysis; type: ADME, tissue-based
Outcome measure: fraction unbound at 4 h
Output: the number by itself.

# input Entry CC(=O)Nc1c(F)cc(C(=O)N[C@H]2CC[C@H](O)CC2)cc1O[C@@H](C)c1ccccc1 needs its fraction unbound at 4 h filled in; supply it.
# output 0.32

---

molecular target: Bromodomain testis-specific protein (Homo sapiens, UniProt Q58F21, Y66A); test: Displacement of Alexa Fluor 647 labelled ligand from 6His-Thr tagged BRDT BD2/BD1 Y66A mutant (1 to 397 residues) (unknown origin) measured after 30 mins by TR-FRET assay
Outcome measure: pIC50
Scale for pIC50: -log10 of concentration given in mol/L; no unit attached.

# input Entry CC(=O)Nc1c(F)cc(C(=O)N[C@H]2CC[C@H](O)CC2)cc1O[C@@H](C)c1ccccc1 needs its pIC50 filled in; supply it.
# output 6.70

---

test system: Blood; assay: Inhibition of LPS-induced MCP1 production in human whole blood preincubated for 30 mins followed by LPS addition measured after 24 hrs by immunoassay; format: functional, tissue-based
Outcome measure: IC50 (µM)
Only the number, expressed in µM, is required.

# input Please respond with reported IC50 (system Blood) for CC(=O)Nc1c(F)cc(C(=O)N[C@H]2CC[C@H](O)CC2)cc1O[C@@H](C)c1ccccc1 .
# output 0.0316

---

test: physchem; settings: phosphate buffered saline, pH 7.4
# maps each entry to its solubility kinetic
Only the number, expressed in µg/mL, is required.

Guide cases for solubility kinetic, answers given:
Structure as smiles: CC(=O)Nc1ccc(C(=O)NCCCN)cc1OCc1ccccc1
Value unit: µg/mL
solubility kinetic: 123
//
Structure as smiles: CCNC(=O)c1ccc(NC(C)=O)c(OCc2ccccc2)c1F
Value unit: µg/mL
solubility kinetic: 119
//
Structure as smiles: CC(=O)Nc1ccc(C(=O)NCCCN)cc1OCc1ccc(C(N)=O)cc1
Value unit: µg/mL
solubility kinetic: 151
//
Structure as smiles: CC(=O)Nc1ccc(C(=O)NCCCN)cc1OCc1cccc(Cl)c1
Value unit: µg/mL
solubility kinetic: 96

# input Entry CC(=O)Nc1ccc(C(=O)N[C@H]2CC[C@H](O)CC2)cc1O[C@@H](C)c1ccccc1 needs its solubility kinetic filled in; supply it.
# output 170

# input Entry CC(=O)Nc1ccc(C(=O)NCCCN)cc1OCc1ccc(C)cc1 needs its solubility kinetic filled in; supply it.
# output 114

---

experiment: Clearance in Beagle dog at 0.5 mg/kg, iv administered as 1 hr infusion on day 1 and day 7 to achieve a target dose of 1 mg/kg by LC-MS/MS analysis; type: ADME, organism-based, Canis lupus familiaris; details: in vivo, dose 0.5-1 mg/kg, time 7 day
Outcome measure: clearance (mL/min/kg)
Only the number, expressed in mL/min/kg, is required.

# input Entry CC(=O)Nc1c(F)cc(C(=O)N[C@H]2CC[C@H](O)CC2)cc1O[C@@H](C)c1ccccc1 needs its clearance filled in; supply it.
# output 20

---

experiment: Oral bioavailability in Wistar Han rat at 3 mg/kg by LC-MS/MS analysis; type: ADME, organism-based; conditions: in vivo
Outcome measure: bioavailability (%)
Only the number, expressed in %, is required.

# input Entry CC(=O)Nc1c(F)cc(C(=O)N[C@H]2CC[C@H](O)CC2)cc1O[C@@H](C)c1ccccc1 needs its bioavailability filled in; supply it.
# output 31

---

conditions: buffer, pH 7.4
# maps each entry to its CHI

Guide cases for CHI, answers given:
Structure as smiles: CC(=O)Nc1ccc(C(=O)NC2CCOCC2)cc1OCc1ccccc1
Experimental value: 3.3
//
Structure as smiles: CC(=O)Nc1ccc(C(=O)NC2CCOCC2)cc1O[C@@H](C)c1ccccc1
Experimental value: 3.7
//
Structure as smiles: CCNC(=O)c1cc(OCc2ccccc2)c(NC(C)=O)cc1F
Experimental value: 4.4

# input Entry CC(=O)Nc1ccc(C(=O)NCCC2CCOCC2)cc1OCc1ccccc1 needs its CHI filled in; supply it.
# output 4

# input Entry CC(=O)Nc1ccc(C(=O)NCCO)cc1OCc1ccccc1 needs its CHI filled in; supply it.
# output 2.3

# input Entry CC(=O)Nc1ccccc1OCc1ccccc1 needs its CHI filled in; supply it.
# output 4.9

---

test: Clearance in Wistar Han rat at 1 mg/kg, iv administered as 1 hr infusion or 3 mg/kg, po administered via gavage by LC-MS/MS analysis; type: ADME, organism-based; conditions: in vivo
Outcome measure: clearance (mL/min/kg)
Only the number, expressed in mL/min/kg, is required.

# input Entry CC(=O)Nc1c(F)cc(C(=O)N[C@H]2CC[C@H](O)CC2)cc1O[C@@H](C)c1ccccc1 [GSK046] needs its clearance filled in; supply it.
# output 36

---

target: Bromodomain-containing protein 3 (Homo sapiens, UniProt Q15059, Y73A); assay: Displacement of Alexa Fluor 647 labelled ligand from 6His-Thr tagged BRD3 BD2/BD1 Y73A mutant (1 to 435 residues) (unknown origin) measured after 30 mins by TR-FRET assay
Sequence (Q15059 2-726 Y73A limits assumed): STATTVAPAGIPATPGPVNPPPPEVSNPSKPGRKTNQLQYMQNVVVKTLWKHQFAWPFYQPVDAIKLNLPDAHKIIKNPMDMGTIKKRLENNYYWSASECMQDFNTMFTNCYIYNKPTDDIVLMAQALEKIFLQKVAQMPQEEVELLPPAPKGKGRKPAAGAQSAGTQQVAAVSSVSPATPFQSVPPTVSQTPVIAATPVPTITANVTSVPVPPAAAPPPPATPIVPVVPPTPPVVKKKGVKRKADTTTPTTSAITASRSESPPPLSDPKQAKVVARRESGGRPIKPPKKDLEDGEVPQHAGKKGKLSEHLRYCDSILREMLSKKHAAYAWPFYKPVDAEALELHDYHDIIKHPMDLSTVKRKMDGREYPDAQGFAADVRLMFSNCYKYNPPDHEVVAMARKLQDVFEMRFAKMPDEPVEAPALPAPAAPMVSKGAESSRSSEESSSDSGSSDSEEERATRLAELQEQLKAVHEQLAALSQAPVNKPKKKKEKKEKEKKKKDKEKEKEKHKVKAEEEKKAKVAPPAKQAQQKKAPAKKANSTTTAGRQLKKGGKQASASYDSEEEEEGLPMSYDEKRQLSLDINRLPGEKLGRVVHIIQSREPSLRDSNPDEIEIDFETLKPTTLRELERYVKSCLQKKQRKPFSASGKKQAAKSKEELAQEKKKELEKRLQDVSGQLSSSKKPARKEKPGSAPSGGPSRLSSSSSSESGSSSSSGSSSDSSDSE
Outcome measure: IC50

# input Entry CC(=O)Nc1c(F)cc(C(=O)N[C@H]2CC[C@H](O)CC2)cc1O[C@@H](C)c1ccccc1 [GSK046] needs its IC50 filled in; supply it.
# output 100 nM

---

Consider molecules characterized by their IC50 with Bromodomain-containing protein 4 (Homo sapiens, UniProt O60885, Y390A).

Guide cases for IC50, answers given:
Molecule: CC(=O)Nc1ccc(C(=O)NCCCN)cc1OCc1ccc(C(N)=O)cc1
Target: Bromodomain-containing protein 4 (Homo sapiens, UniProt O60885, Y390A)
IC50: > 50.1 µM

Molecule: CCNC(=O)c1cc(F)c(NC(C)=O)c(OCc2ccccc2)c1
Target: Bromodomain-containing protein 4 (Homo sapiens, UniProt O60885, Y390A)
IC50: > 50.1 µM

# input Please respond with reported IC50 (system Bromodomain-containing protein 4 (Homo sapiens, UniProt O60885, Y390A)) for CC(=O)Nc1ccc(C(=O)NCC2CCOCC2)cc1OCc1ccccc1 .
# output > 50.1 µM

# input Please respond with reported IC50 (system Bromodomain-containing protein 4 (Homo sapiens, UniProt O60885, Y390A)) for COc1ccc(COc2cc(C(=O)NCCCN)ccc2NC(C)=O)cc1 .
# output 39.8 µM

---

experiment: Half life in Wistar Han rat at 1 mg/kg, iv administered as 1 hr infusion or 3 mg/kg, po administered via gavage by LC-MS/MS analysis; format: ADME, organism-based; details: in vivo
Outcome measure: half-life (min)
Only the number, expressed in min, is required.

# input Entry CC(=O)Nc1c(F)cc(C(=O)N[C@H]2CC[C@H](O)CC2)cc1O[C@@H](C)c1ccccc1 needs its half-life filled in; supply it.
# output 30
